species: Rattus norvegicus; experiment: Hypolipidemic effects(liver weight) in male rats; assay type: functional
metric name: Change (%)
The answer is to be given in %; state only the numeric part.

Consider the following illustrative entries.
CCC(O)c1cc(OCCCC(C)(C)C(=O)O)ccc1OCCCC(C)(C)C(=O)O (configuration not stated) = 34
O=C(O)C1(CCCCOc2ccc(OCCCCC3(C(=O)O)CCC3)cc2)CCC1 = 0
COC(=O)C(C)(C)CCCOc1cc(OCCCC(C)(C)C(=O)OC)c(C(C)(C)C)cc1C(C)(C)C = 0
COC(=O)C(C)(C)CCCOc1cccc(OCCCC(C)(C)C(=O)OC)c1C = 33

[Q] What does the data say about its Change? Entry: CC(C)(CCCOc1ccc(-c2ccc(OCCCC(C)(C)C(=O)O)cc2)cc1)C(=O)O
[A] 15

[Q] What does the data say about its Change? Entry: CC(C)(Oc1cccc(OC(C)(C)C(=O)O)c1)C(=O)O
[A] 0

[Q] What does the data say about its Change? Entry: CC(=O)OCC(C)(C)CCCOc1ccc(OCCCC(C)(C)COC(C)=O)c(-c2ccccc2)c1
[A] 19
